Assay: NCI Yeast Anticancer Drug Screen. Data for the mlh1 rad18 strain (AID 175)
Settings: S. cerevisiae mlh1 rad18 strain growth inhibition; at 50.0 µM
This is part of a sample that, as a whole, favours compounds with a hit. Of some 79,000 tested, about 15% had one in any assay. Calls of active or inactive are those of the source. Rule as the data show it: active = growth inhibition above about 70%; inactive = the rest.
Respond using exactly one of the listed classes: YES (active), NO (inactive)

1. O=C(O/N=C1/CCCC/C1=C\c1ccccc1)c1ccccc1 :: YES
2. CCCCCCCNc1ccc2c(cc1=O)C(NC(C)=O)CCc1cc(OC)c(OC)c(OC)c1-2 (stereo unspecified) :: NO
3. CCC(c1ccc(O)cc1)C(CC)c1ccc(O)c(O)c1 (stereo unspecified) :: YES
4. CCOCCC(=O)NNc1ccccc1 :: NO
5. N#Cc1c(Cl)nc2ccccc2c1N=[N+]=[N-] :: NO

What did the test return for Cc1cccc(C[P+](c2ccccc2)(c2ccccc2)c2ccccc2)c1 ?
YES

What did the test return for O=C1C2=C(Nc3cc([N+](=O)[O-])ccc3N2)OC1c1c2ccccc2cc2ccccc12 (stereo unspecified) ?
YES

What did the test return for Cc1c2ccnc(C(N)=O)c2c(C)c2c1[nH]c1ccccc12 ?
YES

What did the test return for CCOC(C)c1ccccc1 (stereo unspecified) ?
NO

What did the test return for N#Cc1c(-c2ccc(Cl)cc2)c(-c2ccc(Cl)cc2)nn(CCOC(=O)CCC(=O)O)c1=O ?
YES

What did the test return for O=C(Nc1ccc(S(=O)(=O)NC2CCCCC2)cc1)OC1CCCCC1 ?
YES

###

Test: NCI Yeast Anticancer Drug Screen. Data for the mec2-1 strain (AID 157)
Conditions: S. cerevisiae mec2-1 strain, at 50.0 µM, stronger effect = higher value
This is part of a sample that, as a whole, favours compounds with a hit. Of some 79,000 tested, about 15% had one in any assay. Activity calls are given as the source filed them. No stated cut-off is given here; in the data, active means growth inhibition above about 70%; inactive means the rest. Where a SMILES comes first, the peptide text is derived from it. The star is where a group is joined. Trt = c1ccc(C(c2ccccc2)(c2ccccc2)*)cc1; Cbz = O=C(OCc1ccccc1)*
This section presents compounds with their documented growth inhibition values.

Look over these answered cases.
1. NNC(=O)NN=C(c1ccccc1)c1ccccc1 :: -13.2% (inactive)
2. COc1ccc(C(=O)Nc2ccc(O)c(=O)cc2)cc1 :: 17.8% (inactive)
3. Cc1ccc2c(c1)C1(C)C=C(CN3CCN(C)CC3)C(=O)CC1O2 (stereo not drawn) :: 99.7% (active)
4. Cn1cc(NC(=O)Nc2cc(C(=O)Nc3cc(C(=O)Nc4ccc5cc(S(=O)(=O)O)cc(S(=O)(=O)O)c5c4)n(C)c3)n(C)c2)cc1C(=O)Nc1cc(C(=O)Nc2ccc3cc(S(=O)(=O)O)cc(S(=O)(=O)O)c3c2)n(C)c1 :: 93.7% (active)

Kindly note the recorded growth inhibition for C[n+]1c(-c2cccc(OCCCCCCCCOc3cccc(-c4c5cc(N)ccc5c5ccc(N)cc5[n+]4C)c3)c2)c2cc(N)ccc2c2ccc(N)cc21 , which is 88.2% (active)

Kindly note the recorded growth inhibition for NS(=O)(=O)c1ccc(NC(=S)/N=C\C(C(=O)c2ccccc2)=C(\O)c2ccccc2)cc1 , which is 1.7% (inactive)

Kindly note the recorded growth inhibition for CCS(CC)(CC)CC1CCCC2=CCC(P(=O)(c3ccccc3)c3ccccc3)CC21 (stereo not drawn) , which is 78.7% (active)

Kindly note the recorded growth inhibition for C(=N\Nc1ccc2ccccc2n1)/c1ccccn1.CC(=O)[O-].CC(=O)[O-].[Zn+2] , which is 39.3% (inactive)

Kindly note the recorded growth inhibition for O=C(NCCCCCCNC(=O)n1cc(F)c(=O)[nH]c1=O)NCCCOCCOCCOCCOCCOCCOCCOCCOCCOCCOCCOCCOCCOCCOCCOCCOCCOCCOCCOCCOCCOCCCNC(=O)C(O)C(O)C(O)C(O)CO (stereo not drawn) , which is 82% (active)

Kindly note the recorded growth inhibition for Cc1cc(Cl)c2c(c1)C(=N/O)/C(=C\c1ccco1)O2 , which is 90.3% (active)

Kindly note the recorded growth inhibition for COc1c2occc2c(OC)c2c(C)c(C(=O)OCCN3CCOCC3)oc12 , which is 50.3% (inactive)

Kindly note the recorded growth inhibition for COC(=O)C(CSC(c1ccccc1)(c1ccccc1)c1ccccc1)NC(=O)C(CC(N)=O)NC(=O)OCc1ccccc1 (stereo not drawn) (Cbz-Asn-Cys(Trt)-OMe; configuration not given here) , which is 68.2% (inactive)

Kindly note the recorded growth inhibition for Cc1ccc(S(=O)(=O)Nc2ccc3c(c2)Cc2cc([N+](=O)[O-])ccc2-3)cc1 , which is 45.8% (inactive)

Kindly note the recorded growth inhibition for C[CH2][Sn]([CH2]C)([O]C(=O)c1cccc(OC)c1)[O][Sn]([CH2]C)([CH2]C)[O]C(=O)c1cccc(OC)c1 , which is 39.2% (inactive)

Kindly note the recorded growth inhibition for CC(C)C(=O)NNc1ccccc1 , which is 34.2% (inactive)

Kindly note the recorded growth inhibition for O=C1C=CC(=O)c2c(O)c(N3CCC[C@H]3CO)c(Cl)c(O)c21 , which is 78.9% (active)

Kindly note the recorded growth inhibition for CC(=O)N(C1=C(Cl)C(=O)c2ccccc2C1=O)c1ccc(Cl)cc1 , which is 95.3% (active)

Kindly note the recorded growth inhibition for COC(=O)c1ccccc1C#Cc1ccccc1C(=O)OC , which is 54.3% (inactive)

###

Test: NCI Yeast Anticancer Drug Screen. Data for the cln2 rad14 strain (AID 165);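 also: 0% = growth equal to vehicle treated cultures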
Conditions: S. cerevisiae cln2 rad14 strain, at 5.0 µM (retest, dose inferred, filed as 0.5), stronger effect = higher value
The panel holds about 79,000 compounds, 15% with a hit somewhere; the sample as a whole holds those more often.
Readout: growth inhibition (%)
Numeric answer only, unit % assumed.

1. NC(=S)N/N=C1/C(=O)c2cccc3cccc1c23 :: -9
2. N#CSCC(=O)c1ccc(Cl)cc1 :: 83
3. CCOC(=O)N1CCN(CCCOc2ccc(Cl)cc2Cc2ccccc2)CC1 :: 30
4. CCCCCCC(C)OC(=O)/C=C/c1ccccc1 (configuration not stated) :: 0
5. Clc1ccc2c(NCCCCCCNc3ccnc4cc(Cl)ccc34)ccnc2c1 :: -2
6. Clc1ccc(-c2noc(CN3CCCCC3)n2)cc1 :: -7
7. COc1cc(OC)cc(C2OC3=C(Nc4ccc([N+](=O)[O-])cc4N3)C2=O)c1 (configuration not stated) :: 11
8. NCCSC1(O)C(=O)c2ccccc2-c2ccccc21 (configuration not stated) :: -14
9. CNc1ccc2c(c1)c1ccccc1n2C :: -1
10. O=C(Nc1cc(Cl)cc(Cl)c1)OCCCl :: 24

Kindly note the recorded growth inhibition for O=C1NC(=O)N(c2ccc(Cl)c(Cl)c2)C1=O , which is -4

Kindly note the recorded growth inhibition for O=C(Nc1ccccc1)OCCc1ccc(Br)cc1 , which is 1

Kindly note the recorded growth inhibition for CCOC(=O)/C(=C/c1ccc2ccccc2c1)P(=O)(OCC)OCC , which is 10

Kindly note the recorded growth inhibition for N=C(N)c1ccc(Nc2ccc(-c3cc4ccc(C(=N)N)cc4[nH]3)cc2)cc1 , which is 99

Kindly note the recorded growth inhibition for COc1ccc(C(=O)Oc2c(Br)cc(Br)cc2Br)cc1 , which is -1

Kindly note the recorded growth inhibition for N#CSCCSC#N , which is 6

Kindly note the recorded growth inhibition for C=CCOc1ccc2c(c1)CC=C1[C@@H]2CC[C@]2(C)C(=N\O)/C(=N/O)C[C@@H]12 , which is -2

Kindly note the recorded growth inhibition for COC1/C=C/OC2(C)Oc3c(C)c(O)c4c(c3C2=O)C(=O)C=C(NC(=O)/C(C)=C\C=C\C(C)C(OC=O)C(C)C(O)C(C)C(OC(C)=O)C1C)C4=O (configuration not stated) , which is -5

Kindly note the recorded growth inhibition for CC1OC(OC2C(OC3CCC4(C)C(CCC5(C)C4CC=C4C6CC(C)(C)CCC6(CO)C(O)CC45C)C3(C)C)OC(C(=O)O)C(OC3OC(COC4OC(CO)C(O)C(O)C4O)C(O)C(O)C3O)C2O)C(O)C(O)C1O (configuration not stated) , which is 15

Kindly note the recorded growth inhibition for COc1cc(/C=C(/C)C[N+](=O)[O-])ccc1O , which is 13

Kindly note the recorded growth inhibition for Nc1ccc(Cc2ccc(Cl)cc2)cc1 , which is -60

Kindly note the recorded growth inhibition for Cc1cc(Cl)ccc1OCC(=O)Oc1c(Cl)c(Cl)c(Cl)c(Cl)c1Cl , which is -12

###

This section presents compounds with their documented growth inhibition values.
Test: NCI Yeast Anticancer Drug Screen. Data for the rad50 strain (AID 155);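 also: 0% = growth of vehicle-only cultures of the same strain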
Conditions: S. cerevisiae rad50 strain growth inhibition; at 5.0 µM (retest, dose inferred, filed as 0.5); stronger effect = higher value
About 79,000 compounds went through this panel and 15% of them were active in at least one assay; those are over-represented in the sample as a whole.
Numeric answer only, unit % assumed.

Look over these answered cases.
1) CCCCCCN(CCCCCC)CC(O)c1cc(-c2ccccc2)nc2c(O)cccc12 (stereo not given) :: 4
2) OCc1ccccc1CC(O)(c1ccccc1)c1ccccc1 :: -7
3) Nc1nc(-c2ccccc2)c(-c2ccccc2)c(-c2nc(N)nc(-c3ccccc3)c2-c2ccccc2)n1 :: 7
4) CCCCc1c2c(nc3c1CCc1cc4cc5c(nc4nc1-3)-c1nc3c(c(CCCC)c1CC5)CCC/C3=N/OC)/C(=N\OC)CCC2 :: 0
5) COc1cc(C(c2cc3c(cc2O)OCO3)N2CCOCC2)cc(OC)c1OC (stereo not given) :: 0

Kindly note the recorded growth inhibition for Cc1cc2c(cc1Cl)Sc1nnc(C)n1S2(=O)=O , which is 18

Kindly note the recorded growth inhibition for CC1=C(C(=O)Nc2cccc(Cl)c2)C(c2ccccc2O)C(C(=O)Nc2cccc(Cl)c2)=C(C)N1 , which is 25

Kindly note the recorded growth inhibition for CCCCC(CC(=O)O)c1ccc(Cl)cc1 (stereo not given) , which is -146

Kindly note the recorded growth inhibition for c1ccc(C[n+]2cccc(-c3cc4ccccc4[nH]3)c2)cc1 , which is 12

Kindly note the recorded growth inhibition for CCC/C(=N\NC(=S)N1CCCCCC1)c1ccccn1 , which is 69
